- SUBJECT_OF_TEST: MOP receptor (Homo sapiens, UniProt P35372)
- Sequence (P35372 whole entry): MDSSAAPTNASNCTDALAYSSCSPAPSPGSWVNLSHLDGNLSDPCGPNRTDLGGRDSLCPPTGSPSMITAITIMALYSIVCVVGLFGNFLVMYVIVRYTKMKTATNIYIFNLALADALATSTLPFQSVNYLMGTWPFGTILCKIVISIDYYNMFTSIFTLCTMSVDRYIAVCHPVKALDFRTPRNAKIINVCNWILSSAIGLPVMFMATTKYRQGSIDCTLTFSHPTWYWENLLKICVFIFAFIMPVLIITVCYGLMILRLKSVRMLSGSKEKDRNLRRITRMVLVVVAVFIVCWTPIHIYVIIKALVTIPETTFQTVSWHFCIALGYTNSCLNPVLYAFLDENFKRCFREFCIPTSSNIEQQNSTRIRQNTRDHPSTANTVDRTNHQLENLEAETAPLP
Record form. Attribute: Ki. Fill in for each entry.
The reply should be a number in nM, with the unit left off.

Recorded Ki of Cc1ccc(CC(=O)O[C@@]23CCC(=O)[C@@H]4Oc5c(O)ccc6c5[C@@]42CCN(CC2CC2)[C@@H]3C6)cc1 , please.
1.87

Try this molecule next: O=C(Cc1ccccc1Cl)O[C@@]12CCC(=O)[C@@H]3Oc4c(O)ccc5c4[C@@]31CCN(CC1CC1)[C@@H]2C5
4.66

Try this molecule next: O=C(Cc1ccc(Cl)cc1)O[C@@]12CCC(=O)[C@@H]3Oc4c(O)ccc5c4[C@@]31CCN(CC1CC1)C2C5
1.78

Try this molecule next: Cc1ccccc1CC(=O)O[C@@]12CCC(=O)[C@@H]3Oc4c(O)ccc5c4[C@@]31CCN(CC1CC1)[C@@H]2C5
3.59

Try this molecule next: O=C(Cc1ccccc1F)O[C@@]12CCC(=O)[C@@H]3Oc4c(O)ccc5c4[C@@]31CCN(CC1CC1)[C@@H]2C5
2.59

Try this molecule next: COc1ccccc1CC(=O)O[C@@]12CCC(=O)[C@@H]3Oc4c(O)ccc5c4[C@@]31CCN(CC1CC1)[C@@H]2C5
3.77

Try this molecule next: O=C(Cc1ccccc1)O[C@@]12CCC(=O)[C@@H]3Oc4c(O)ccc5c4[C@@]31CCN(CC1CC1)[C@@H]2C5
0.86

Try this molecule next: O=C(Cc1ccc2c(c1)OCO2)O[C@@]12CCC(=O)[C@@H]3Oc4c(O)ccc5c4[C@@]31CCN(CC1CC1)[C@@H]2C5
0.99

Try this molecule next: COc1ccc(CC(=O)O[C@@]23CCC(=O)[C@@H]4Oc5c(O)ccc6c5[C@@]42CCN(CC2CC2)[C@@H]3C6)cc1
1.08

Try this molecule next: Cc1cccc(CC(=O)O[C@@]23CCC(=O)[C@@H]4Oc5c(O)ccc6c5[C@@]42CCN(CC2CC2)[C@@H]3C6)c1
1.91

Try this molecule next: COc1cccc(CC(=O)O[C@@]23CCC(=O)[C@@H]4Oc5c(O)ccc6c5[C@@]42CCN(CC2CC2)C3C6)c1
1.1
